Values compiled from the Immune Epitope Database (IEDB).

# test target: HLA-C*03:03
# experimental details: IEDB peptide-MHC binding, purified MHC/direct/fluorescence; filed as Kd, often an IC50 or EC50 that approximates it; bounds were set here for any values at or beyond the usual limits of such assays
# experimental conditions: source organism: Campylobacter jejuni subsp. jejuni 81-176
experimental readout: Kd

construct sequence	experimental readout	test result
YTNYPFLFF	Kd	159 nM

###

Property: pKd; scope: individual sequences
# test target: HLA-A*29:02
# experimental details: IEDB peptide-MHC binding, purified MHC/direct/fluorescence; filed as Kd, often an IC50 or EC50 that approximates it; bounds were set here for any values at or beyond the usual limits of such assays
# experimental conditions: source organism: Zaire ebolavirus
pKd: −log10 of the molar value.

construct sequence	pKd
HPLARTAKV	≤ 4.70
KEGKLQCRI	≤ 4.70

###

# test target: HLA-B*15:17
# experimental details: IEDB peptide-MHC binding, purified MHC/direct/fluorescence; filed as Kd, often an IC50 or EC50 that approximates it; bounds were set here for any values at or beyond the usual limits of such assays
# experimental conditions: source organism: Mycobacterium tuberculosis

construct sequence	Kd
GPAGYTAAL	≥ 20 µM

###

# test target: HLA-A*02:16
# experimental details: IEDB peptide-MHC binding, purified MHC/competitive/fluorescence; filed as Kd, often an IC50 or EC50 that approximates it; bounds were set here for any values at or beyond the usual limits of such assays
# experimental conditions: source organism: Human immunodeficiency virus 1
pKd: −log10 of the molar value.

construct sequence	pKd
GLGQHIYET	8.69

###

# test target: HLA-B*15:01
# experimental details: IEDB peptide-MHC binding, purified MHC/competitive/radioactivity; filed as Kd, often an IC50 or EC50 that approximates it; bounds were set here for any values at or beyond the usual limits of such assays
# experimental conditions: source organism: Dengue virus 4 Philippines/H241/1956
experimental readout: Kd (nM)

construct sequence	experimental readout	test result
RLRGEQRKTF	Kd	24.4

###

# test target: HLA-A*03:01
# experimental details: IEDB peptide-MHC binding, purified MHC/direct/fluorescence; filed as Kd, often an IC50 or EC50 that approximates it; bounds were set here for any values at or beyond the usual limits of such assays
# experimental conditions: source organism: Bacillus anthracis

construct sequence	Kd
SQMPPQKIM	≥ 20 µM

###

# test target: HLA-A*03:01
# experimental details: IEDB peptide-MHC binding, purified MHC/direct/fluorescence; filed as Kd, often an IC50 or EC50 that approximates it; bounds were set here for any values at or beyond the usual limits of such assays
# experimental conditions: source organism: Escherichia coli O157:H7
pKd: −log10 of the molar value.

construct sequence	pKd
PILPKLFIL	≤ 4.70

###

# test target: HLA-A*24:02
# experimental details: IEDB peptide-MHC binding, purified MHC/competitive/radioactivity; filed as Kd, often an IC50 or EC50 that approximates it; bounds were set here for any values at or beyond the usual limits of such assays
# experimental conditions: source organism: Lymphocytic choriomeningitis virus (strain Armstrong)

construct sequence	Kd
SLSLISHVV	≥ 77.5 µM

###

# test target: HLA-B*40:02
# experimental details: IEDB peptide-MHC binding, purified MHC/competitive/radioactivity; filed as Kd, often an IC50 or EC50 that approximates it; bounds were set here for any values at or beyond the usual limits of such assays
# experimental conditions: source organism: Mammarenavirus juninense
experimental readout: Kd (nM)

construct sequence	experimental readout	test result
HDWHLDPPF	Kd	22.1
HESFDLAGLF	Kd	435

###

# test target: HLA-B*58:01
# experimental details: IEDB peptide-MHC binding, purified MHC/competitive/radioactivity; filed as Kd, often an IC50 or EC50 that approximates it; bounds were set here for any values at or beyond the usual limits of such assays
# experimental conditions: source organism: Dengue virus 4 Dominica/814669/1981
experimental readout: Kd (µM)

construct sequence	test result
KAIKILIGF	0.00766
GASRRSWPLN	6.02

###

# test target: HLA-B*18:01
# experimental details: IEDB peptide-MHC binding, purified MHC/direct/fluorescence; filed as Kd, often an IC50 or EC50 that approximates it; bounds were set here for any values at or beyond the usual limits of such assays
# experimental conditions: source organism: Influenza A virus (A/chicken/Vietnam/5/2003(H5N1))

construct sequence	Kd
RVDKLTQGR	≥ 20 µM

###

# test target: HLA-B*40:01
# experimental details: IEDB peptide-MHC binding, purified MHC/direct/fluorescence; filed as Kd, often an IC50 or EC50 that approximates it; bounds were set here for any values at or beyond the usual limits of such assays
# experimental conditions: source organism: Pseudomonas aeruginosa
experimental readout: Kd (nM)

construct sequence	test target	unit string	test result
GEDDDMLPW	HLA-B*40:01	nM	2590
SEYKAAGYL	HLA-B*40:01	nM	19.6

###

# test target: HLA-A*02:19
# experimental details: IEDB peptide-MHC binding, purified MHC/direct/fluorescence; filed as Kd, often an IC50 or EC50 that approximates it; bounds were set here for any values at or beyond the usual limits of such assays
# experimental conditions: source organism: Toxoplasma gondii
pKd: −log10 of the molar value.

construct sequence	test target	pKd
LPPVVPPLI	HLA-A*02:19	≤ 4.70

###

# test target: HLA-A*24:03
# experimental details: IEDB peptide-MHC binding, purified MHC/direct/fluorescence; filed as Kd, often an IC50 or EC50 that approximates it; bounds were set here for any values at or beyond the usual limits of such assays
# experimental conditions: source organism: Pseudomonas aeruginosa
pKd: −log10 of the molar value.

construct sequence	pKd
TYYPQVVLG	5.49

###

# test target: HLA-B*18:01
# experimental details: IEDB peptide-MHC binding, purified MHC/competitive/fluorescence; filed as Kd, often an IC50 or EC50 that approximates it; bounds were set here for any values at or beyond the usual limits of such assays
# experimental conditions: source organism: Reston ebolavirus

construct sequence	Kd
RRELSKEKL	≥ 20 µM

###

# test target: HLA-A*11:01
# experimental details: IEDB peptide-MHC binding, purified MHC/competitive/fluorescence; filed as Kd, often an IC50 or EC50 that approximates it; bounds were set here for any values at or beyond the usual limits of such assays
# experimental conditions: source organism: Vaccinia virus Copenhagen
pKd: −log10 of the molar value.

construct sequence	pKd
FTENGPWMY	≤ 4.70

###

# test target: HLA-C*15:02
# experimental details: IEDB peptide-MHC binding, purified MHC/direct/fluorescence; filed as Kd, often an IC50 or EC50 that approximates it; bounds were set here for any values at or beyond the usual limits of such assays
# experimental conditions: source organism: Staphylococcus aureus subsp. aureus N315
experimental readout: Kd (µM)

construct sequence	experimental readout	unit string	test result
RTQAVIYAF	Kd	µM	1.4

###

# test target: HLA-A*02:02
# experimental details: IEDB peptide-MHC binding, purified MHC/competitive/radioactivity; filed as Kd, often an IC50 or EC50 that approximates it; bounds were set here for any values at or beyond the usual limits of such assays
# experimental conditions: source organism: HIV-1 M:B_ARV2/SF2
pKd: −log10 of the molar value.

construct sequence	pKd
VIYQYMDDL	6.81

###

# test target: HLA-B*46:01
# experimental details: IEDB peptide-MHC binding, purified MHC/direct/fluorescence; filed as Kd, often an IC50 or EC50 that approximates it; bounds were set here for any values at or beyond the usual limits of such assays
# experimental conditions: source organism: Influenza A virus (A/swine/Korea/S190/2004(H9N2))
pKd: −log10 of the molar value.

construct sequence	test target	pKd
ATTHSWIPK	HLA-B*46:01	≤ 4.70

###

# test target: HLA-B*53:01
# experimental details: IEDB peptide-MHC binding, purified MHC/competitive/radioactivity; filed as Kd, often an IC50 or EC50 that approximates it; bounds were set here for any values at or beyond the usual limits of such assays
# experimental conditions: source organism: SARS coronavirus Tor2
experimental readout: log10(Kd) (log10 of the value in nM)

construct sequence	log10(Kd)
FPLCANGQVF	0.29
MPILTLTRAL	2.31
SPNLAWPLIV	3.22
LPVNVAFEL	1.02
LPDDFMGCVL	2.70

###

Property: pKd; scope: individual sequences
# test target: HLA-A*02:01
# experimental details: IEDB peptide-MHC binding, purified MHC/direct/fluorescence; filed as Kd, often an IC50 or EC50 that approximates it; bounds were set here for any values at or beyond the usual limits of such assays
# experimental conditions: source organism: Vibrio parahaemolyticus
pKd: −log10 of the molar value.
experimental readout: pKd

construct sequence	test result
RSTLANGWY	≤ 4.70
RTHTLRDAK	≤ 4.70

###

# test target: HLA-A*03:01
# experimental details: IEDB peptide-MHC binding, purified MHC/competitive/fluorescence; filed as Kd, often an IC50 or EC50 that approximates it; bounds were set here for any values at or beyond the usual limits of such assays
# experimental conditions: source organism: Giardia lamblia ATCC 50803
pKd: −log10 of the molar value.
Property: pKd; scope: individual sequences

construct sequence	pKd
TEDDWITYI	≤ 4.70
NAMGADYYA	≤ 4.70
